Data credit: patent US8563599B2

tested on: NCI/ADR-RES cells; assay: Growth inhibition assay (NCI method, sulforhodamine B), NCI/ADR-RES; assay type: cell-based, human; details: Homo sapiens, NCI/ADR-RES; multidrug resistant cell line, 48 hr; read-out: GI50 (μM) NCI/ADR-RES
Below: a set of entries, each annotated with reported GI50.

# molecule, measurementUnit, GI50
records = [
    ("O=c1c(-c2ccc(O)cc2)coc2cc(O)ccc12 [Daidzein, reference compound]", "µM", 150),
    ("O=c1c(-c2ccc(O)cc2)coc2cc(O)cc(O)c12 [Genistein, reference compound]", "µM", 17),
    ("CC1(C)C=Cc2c(ccc3c2OC[C@]2(O)c4ccc(O)cc4O[C@H]32)O1 [7 (+)]", "µM", 38),
    ("CC1(C)C=Cc2c(ccc3c2OC[C@@]2(O)c4ccc(O)cc4O[C@@H]32)O1 [7 (−), Glyceollin I (Natural Glyceollin I)]", "µM", 27),
]
